- experiment notes: Inhibition of mouse recombinant alpha-glucosidase using 4-methylumbelliferyl-[…]-D-glucopyranoside as substrate preincubated for 60 mins followed by substrate addition and measured after 30 mins by fluorescence based analysis
measured quantity: pIC50
Please report pIC50 as the negative decimal logarithm of the molar concentration, giving only the number.

Kindly indicate its recorded pIC50. Item: CS(=O)(=O)c1cc(NCc2ccc(CN3C[C@H](O)[C@@H](O)[C@H](O)[C@H]3CO)cc2)cc(-c2cccnn2)c1
6.94

Kindly indicate its recorded pIC50. Item: C[C@@H]1CN(c2ccc(NCc3ccc(CN4C[C@H](O)[C@@H](O)[C@H](O)[C@H]4CO)cc3)c([N+](=O)[O-])c2)C[C@H](C)O1
8.40

Kindly indicate its recorded pIC50. Item: Cc1cc(-c2ccco2)ccc1NCc1ccc(CN2C[C@H](O)[C@@H](O)[C@H](O)[C@H]2CO)cc1
6.50

Kindly indicate its recorded pIC50. Item: Cc1nc2cc(-c3ncccn3)ccc2n1CCCCCCN1C[C@H](O)[C@@H](O)[C@H](O)[C@H]1CO
6.71

----------
- experiment notes: Cytotoxicity against human A549-ACE2 cells infected with SARS-CoV-2 USA-WA1/2020 assessed as reduction in cell viability at 25 uM measured for 3 days by WST-1 assay relative to control
- Type: toxicity, cell-based
- cond: a549-ace2, 72 h, time 3 day
Consider the following compounds; for each one, report its Activity.
Write it as a number; the unit % goes unstated.

Kindly indicate its recorded Activity. Item: [N-]=[N+]=Nc1ccc(NCCc2cncc(CCN3C[C@H](O)[C@@H](O)[C@H](O)[C@H]3CO)n2)c([N+](=O)[O-])c1
38.8

Kindly indicate its recorded Activity. Item: CS(=O)(=O)c1cc(NCc2ccc(CN3C[C@H](O)[C@@H](O)[C@H](O)[C@H]3CO)cc2)cc(-c2cccnn2)c1
99.2

Kindly indicate its recorded Activity. Item: Cc1nc(-c2ccc(NCCCCCCN3C[C@H](O)[C@@H](O)[C@H](O)[C@H]3CO)c([N+](=O)[O-])c2)no1
100

Kindly indicate its recorded Activity. Item: OC[C@@H]1[C@@H](O)[C@H](O)[C@@H](O)CN1CCc1ccc(CCNc2cc(O)cc(-c3cccnn3)c2)cc1
93.5

Kindly indicate its recorded Activity. Item: O=[N+]([O-])c1cc(N2C3CCC2COC3)ccc1NCCCCCCN1C[C@H](O)[C@@H](O)[C@H](O)[C@H]1CO
98.9

Kindly indicate its recorded Activity. Item: CS(=O)(=O)c1cc(NCc2cccc(CN3C[C@H](O)[C@@H](O)[C@H](O)[C@H]3CO)c2)cc(-c2ccccc2)c1
40.8

Kindly indicate its recorded Activity. Item: OC[C@@H]1[C@@H](O)[C@H](O)[C@@H](O)CN1CCc1ccc(CCNc2cc(O)cc(-c3ncon3)c2)cc1
83.8

----------
Consider the following molecules; for each one, report its pIC50.
- experiment notes: Inhibition of mouse recombinant alpha-glucosidase using 4-methylumbelliferyl-[…]-D-glucopyranoside as substrate preincubated for 60 mins followed by substrate addition and measured after 30 mins by fluorescence based analysis
Please report pIC50 as the negative decimal logarithm of the molar concentration, giving only the number.

Kindly indicate its recorded pIC50. Item: OC[C@@H]1[C@@H](O)[C@H](O)[C@@H](O)CN1CCc1ccc(CCNc2cc(O)cc(-c3ncon3)c2)cc1
6.53

Kindly indicate its recorded pIC50. Item: [N-]=[N+]=Nc1ccc(NCCCCCCN2C[C@H](O)[C@@H](O)[C@H](O)[C@H]2CO)c([N+](=O)[O-])c1
8.00

Kindly indicate its recorded pIC50. Item: Cc1cc(NCc2ccc(CN3C[C@H](O)[C@@H](O)[C@H](O)[C@H]3CO)cc2)cc(-c2cccnn2)c1
6.75

----------
- experiment notes: Cytotoxicity against human A549-ACE2 cells infected with SARS-CoV-2 USA-WA1/2020 assessed as reduction in cell viability at 25 uM measured for 3 days by WST-1 assay relative to control
- Type: toxicity, cell-based
- cond: a549-ace2, 72 h, time 3 day
measured quantity: Activity
Please format your answer as a value with the unit trailing.

Kindly indicate its recorded Activity. Item: C[C@@H]1CN(c2ccc(NCc3ccc(CN4C[C@H](O)[C@@H](O)[C@H](O)[C@H]4CO)cc3)c([N+](=O)[O-])c2)C[C@H](C)O1
51.5%

Kindly indicate its recorded Activity. Item: Cc1cc(NCc2cccc(CN3C[C@H](O)[C@@H](O)[C@H](O)[C@H]3CO)n2)cc(-c2ccc[nH]2)c1
54.1%

Kindly indicate its recorded Activity. Item: O=[N+]([O-])c1cc(-c2ccnc(N3CCOCC3)n2)ccc1NCCCCCCN1C[C@H](O)[C@@H](O)[C@H](O)[C@H]1CO
58.6%

Kindly indicate its recorded Activity. Item: [N-]=[N+]=Nc1ccc(NCCCCCCN2C[C@H](O)[C@@H](O)[C@H](O)[C@H]2CO)c([N+](=O)[O-])c1
100%

Kindly indicate its recorded Activity. Item: OC[C@@H]1[C@@H](O)[C@H](O)[C@@H](O)CN1CCCCCCCCc1ccco1
95.7%

Kindly indicate its recorded Activity. Item: OC[C@@H]1[C@@H](O)[C@H](O)[C@@H](O)CN1CCCCCCNc1cc(-c2cccnn2)cc(C2CC2)c1
100%

Kindly indicate its recorded Activity. Item: N#Cc1cc(NCc2cccc(CN3C[C@H](O)[C@@H](O)[C@H](O)[C@H]3CO)c2)cc(C2=COCCO2)c1
100%

Kindly indicate its recorded Activity. Item: Cc1cc(NCc2cccc(CN3C[C@H](O)[C@@H](O)[C@H](O)[C@H]3CO)c2)cc(-c2ncccn2)c1
52.9%

Kindly indicate its recorded Activity. Item: O=[N+]([O-])c1cc(-c2noc(C3CCC3)n2)ccc1NCCCCCCN1C[C@H](O)[C@@H](O)[C@H](O)[C@H]1CO
100%

Kindly indicate its recorded Activity. Item: O=[N+]([O-])c1cc(NCCCCCCN2C[C@H](O)[C@@H](O)[C@H](O)[C@H]2CO)cc(-c2ccncc2)c1
87.2%

Kindly indicate its recorded Activity. Item: O=[N+]([O-])c1cc(N2CCOCC2)ccc1NCc1cccc(CN2C[C@H](O)[C@@H](O)[C@H](O)[C@H]2CO)c1
36.5%

Kindly indicate its recorded Activity. Item: O=[N+]([O-])c1cc(-n2cccn2)ccc1NCCCCCCN[C@H]1C[C@](O)(CO)[C@@H](O)[C@H](O)[C@H]1O
85.6%

----------
Consider the following compounds; for each one, report its IC50.
- experiment notes: Inhibition of mouse recombinant alpha-glucosidase using 4-methylumbelliferyl-[…]-D-glucopyranoside as substrate preincubated for 60 mins followed by substrate addition and measured after 30 mins by fluorescence based analysis

Kindly indicate its recorded IC50. Item: O=[N+]([O-])c1cc(-c2ccccc2)ccc1NCCCCCCN1C[C@H](O)[C@@H](O)[C@H](O)[C@H]1CO
< 1 nM

Kindly indicate its recorded IC50. Item: OC[C@@H]1[C@@H](O)[C@H](O)[C@@H](O)CN1CCc1ccc(CCNc2cc(O)cc(-c3cccnn3)c2)cc1
< 1 nM

Kindly indicate its recorded IC50. Item: O=[N+]([O-])c1cc(N2[C@@H]3CC[C@H]2COC3)ccc1NCc1ccc(CN2C[C@H](O)[C@@H](O)[C@H](O)[C@H]2CO)cc1
< 1 nM
